The reported measurements were obtained from ChEMBL document CHEMBL2094195.

Value Kind: pIC50
Would you please state pIC50, meaning minus log10 of the concentration in mol/L, as a bare number?

// fetch pIC50; item: `Cc1n[nH]c(C)c1CC(=O)NCc1c(F)cccc1Cl` ; system: P2X purinoceptor 7 (Homo sapiens)
Sequence (Q99572 whole entry): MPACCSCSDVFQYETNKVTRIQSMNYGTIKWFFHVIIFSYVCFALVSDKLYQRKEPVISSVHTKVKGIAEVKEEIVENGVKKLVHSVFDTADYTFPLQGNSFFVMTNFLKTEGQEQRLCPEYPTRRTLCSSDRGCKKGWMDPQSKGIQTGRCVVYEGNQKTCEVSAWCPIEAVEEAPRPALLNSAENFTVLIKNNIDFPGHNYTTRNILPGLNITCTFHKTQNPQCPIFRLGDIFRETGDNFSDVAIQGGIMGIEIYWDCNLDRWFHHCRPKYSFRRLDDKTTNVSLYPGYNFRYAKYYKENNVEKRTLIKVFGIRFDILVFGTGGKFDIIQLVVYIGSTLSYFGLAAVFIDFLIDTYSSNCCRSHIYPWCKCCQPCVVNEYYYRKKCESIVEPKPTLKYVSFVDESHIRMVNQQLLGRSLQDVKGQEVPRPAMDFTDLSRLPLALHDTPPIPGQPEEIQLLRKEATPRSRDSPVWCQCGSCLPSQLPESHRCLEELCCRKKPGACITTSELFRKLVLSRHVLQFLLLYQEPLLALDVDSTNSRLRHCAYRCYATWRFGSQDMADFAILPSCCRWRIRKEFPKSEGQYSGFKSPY
6.80

// fetch pIC50; item: `Cc1n[nH]c(C)c1CC(=O)NCc1ccc(Cl)c(Cl)c1` ; system: P2X purinoceptor 7 (Homo sapiens)
6.70

// fetch pIC50; item: `Cc1noc(C)c1CC(=O)NCc1ccc(F)c(F)c1Cl` ; system: P2X purinoceptor 7 (Homo sapiens)
7.50

// fetch pIC50; item: `Cc1noc(C)c1CC(=O)NCc1ccc(F)c(Cl)c1F` ; system: P2X purinoceptor 7 (Homo sapiens)
7.40

// fetch pIC50; item: `Cc1ccc(CNC(=O)Cc2c(C)n[nH]c2C)c(C)c1` ; system: P2X purinoceptor 7 (Homo sapiens)
6.80

// fetch pIC50; item: `Cc1cc(F)ccc1CNC(=O)Cc1c(C)noc1C` ; system: P2X purinoceptor 7 (Homo sapiens)
7.00

// fetch pIC50; item: `Cc1noc(C)c1CC(=O)NCc1ccc(Cl)c(C(F)(F)F)c1` ; system: P2X purinoceptor 7 (Homo sapiens)
6.80

// fetch pIC50; item: `Cc1noc(C)c1CC(=O)NCc1c(F)cccc1Cl` ; system: P2X purinoceptor 7 (Homo sapiens)
6.40

// fetch pIC50; item: `Cc1n[nH]c(C(F)(F)F)c1CC(=O)NCc1cccc(C(F)(F)F)c1Cl` ; system: P2X purinoceptor 7 (Homo sapiens)
8.60

// fetch pIC50; item: `Cc1n[nH]c(C)c1CC(=O)NCc1cc(F)ccc1Cl` ; system: P2X purinoceptor 7 (Homo sapiens)
6.40

// fetch pIC50; item: `Cc1noc(C)c1CC(=O)NCc1ccc(F)cc1Br` ; system: P2X purinoceptor 7 (Homo sapiens)
7.30

// fetch pIC50; item: `Cc1noc(C)c1CC(=O)NCc1cccc(Cl)c1C` ; system: P2X purinoceptor 7 (Homo sapiens)
7.60

* * *

Tgt: P2X purinoceptor 7 (Homo sapiens)
Doc: threshold 30 nM (exclusive). Items with IC50 beneath it return Y; others return N.

Decide: IC50 of `CC(C)c1noc(C(C)C)c1CC(=O)NCc1ccc(F)cc1Cl` strictly below 30 nM?
N

Decide: IC50 of `Cc1cc(Cl)ccc1CNC(=O)Cc1c(C)noc1C` strictly below 30 nM?
Y

Decide: IC50 of `Cc1n[nH]c(C)c1CC(=O)NCc1ccc(Br)cc1F` strictly below 30 nM?
N

Decide: IC50 of `Cc1ccc(CNC(=O)Cc2c(C)noc2C)c(F)c1F` strictly below 30 nM?
N

Decide: IC50 of `CCc1n[nH]c(CC)c1CC(=O)NCc1ccc(F)c(F)c1F` strictly below 30 nM?
N

Decide: IC50 of `Cc1n[nH]c(C(F)(F)F)c1CC(=O)NCc1ccc(F)c(F)c1Cl` strictly below 30 nM?
Y

Decide: IC50 of `Cc1ccccc1CNC(=O)Cc1c(C)noc1C` strictly below 30 nM?
N

Decide: IC50 of `Cc1cccc(CNC(=O)Cc2c(C)noc2C)c1C` strictly below 30 nM?
N

Decide: IC50 of `Cc1noc(C)c1CC(=O)NCc1ccc(Cl)cc1` strictly below 30 nM?
N

Decide: IC50 of `Cc1cccc(Cl)c1CNC(=O)Cc1c(C)n[nH]c1C` strictly below 30 nM?
Y

Decide: IC50 of `Cc1cccc(Cl)c1CNC(=O)Cc1c(C)noc1C` strictly below 30 nM?
Y
